From: PubChem BioAssay AID1159580

# Test Details: chemical genetic growth profiling, strain panel (AID 1159580);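 further: tested at 20 µM; growth read once vehicle control cultures reached saturation at 30 °C; 1 = growth at the plate median or of vehicle wells; lower values mean less growth of the strain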
# Protocol Conditions: S. cerevisiae deletion strains, growth OD, locus YDR001C, strain nth1, hits give low values
The whole screen tested about 5,500 compounds, of which about 2,000 (36%) were called active. Inconclusive results (about 18%) are left out. This is one part of the list.
Reported Property: normalized growth
Answers are plain numbers.

I'm hoping you can list normalized growth for every molecule here, please.
1. Nc1ccncc1
2. Nc1cc(-c2ccncc2)c[nH]c1=O
3. COc1ccc(C(=O)N2CCCC2=O)cc1
4. N[C@H](Cc1cc(I)c(Oc2ccc(O)c(I)c2)c(I)c1)C(=O)O

[0.991, 0.972, 0.97, 1.01]

Note to self: normalized growth recorded for CSc1ccc2c(c1)N(CCC1CCCCN1C)c1ccccc1S2 (stereo not given) was 1.02

###

What normalized growth was measured for each of the following?
# Test Details: chemical genetic growth profiling, strain panel (AID 1159580)
# Protocol Conditions: S. cerevisiae deletion strains, growth OD, locus YPL256C, strain CLN2, hits give low values
Out of some 5,500 compounds screened, about 2,000 (36%) were called active. Inconclusive results (about 18%) are left out. Some of the results follow.
One number for each entry.

The cases that follow already have their normalized growth on record.
CO[C@]12C[C@@H](COC(=O)c3cncc(Br)c3)CN(C)[C@@H]1Cc1cn(C)c3cccc2c13 :: 0.972
CCCCCC1C(=O)CCC1CC(=O)O (configuration not stated) :: 0.964
CC[C@H](CCC(C)[C@H]1CCC2C3CCC4C[C@@H](O)CC[C@]4(C)C3CC[C@@]21C)C(C)C (some centres not stated) :: 1.02
Nc1ccn(C2O[C@H](CO)[C@@H](O)[C@H]2O)c(=O)n1 (some centres not stated) :: 1
COc1c2ccccc2nc2occc12 :: 0.981
O=C(Nc1ccc(Cl)cc1)O/N=C\c1ccn(-c2ccccc2)n1 :: 0.662

I'm hoping you can list normalized growth for every compound here, please.
1. CNC(=O)Oc1ccc2c(c1)[C@]1(C)CCN(C)[C@@H]1N2C
2. CC(=O)O[C@H]1C[C@@H](OC(C)=O)C(C)(C)C2CC(=O)[C@]3(C)C(CC[C@@]4(C)[C@H](c5ccoc5)OC(=O)[C@H]5O[C@]543)[C@]21C (some centres not stated)
3. COC(=O)CCC(C)[C@H]1CCC2C3C(C[C@H](O)[C@@]21C)[C@@]1(C)CC[C@@H](O)C[C@H]1C[C@H]3O (some centres not stated)
4. NC(N)=O
5. C[C@H](N)[C@H](O)c1cccc(O)c1
6. CC(=O)Nc1ccccc1
7. C[C@H](CCC(=O)O)[C@H]1CCC2C3C(CC[C@@]21C)[C@@]1(C)CC[C@@H](O)C[C@H]1C[C@@H]3O (some centres not stated)
8. CN(CCC(N)CC(=O)N[C@H]1C=CC(n2ccc(N)nc2=O)O[C@@H]1C(=O)O)C(=N)N (some centres not stated)

1: 0.986; 2: 0.968; 3: 0.981; 4: 1; 5: 1.04; 6: 0.953; 7: 0.936; 8: 0.901

###

# Test Details: chemical genetic growth profiling, strain panel (AID 1159580)
# Protocol Conditions: S. cerevisiae deletion strains, growth OD, locus YPL055C, strain LGE1, hits give low values
In all, about 5,500 compounds went through this assay and about 2,000 (36%) were called active. Not shown: some 18% with an inconclusive outcome. Some of the results follow.
Reported Property: normalized growth
Give bare numbers.

The cases that follow already have their normalized growth on record.
Clc1ccc(OCCOc2ccc(Cl)cc2)cc1 :: 0.975
O=[N+]([O-])c1cccc(-c2csc(Nc3ccccc3Cl)n2)c1 :: 0.715
O=C(Nc1nccs1)c1ccc([N+](=O)[O-])cc1 :: 0.97
O=C(Nc1nncs1)c1ccncc1 :: 0.888
CCCCCC1C(=O)CCC1CC(=O)OC (stereo not given) :: 1

I'm hoping you can list normalized growth for every compound here, please.
1. COc1ccc(-n2c(-c3ccc(C)cc3)csc2=N)cc1
2. CCCC(C(=O)OCCN(CC)CC)(c1ccccc1)c1ccccc1

[1.03, 1.01]

I'm hoping you can list normalized growth for every compound here, please.
1. CCN(CC)CCOC(=O)C(c1ccccc1)c1ccccc1
2. O=C(O)CCCOc1ccc(Cl)cc1Cl
3. O=C(NNc1c(Cl)cc(Cl)cc1Cl)NC(=O)c1ccccc1F

1.02
1.01
1.01

I'm hoping you can list normalized growth for every compound here, please.
1. O=C(O)CCOc1ccc(Cl)cc1
2. O=C(Nc1ccccc1)Nc1ccc(C(F)(F)F)cc1Br
3. Cc1onc(-c2ccccc2)c1-c1nc(CSc2ccc(C(F)(F)F)cn2)no1

0.763
0.842
1.06

I'm hoping you can list normalized growth for every compound here, please.
1. Cc1ccc(OCc2nnc(SCC(=O)Nc3cccc4c3OCO4)n2-c2ccccc2)c2c1CCC2
2. CCCCCC1C(=O)CCC1CC(=O)O (stereo not given)
3. CN[C@@H]1[C@H](OC2[C@H](O[C@H]3[C@H](O)[C@@H](O)[C@H](N=C(N)N)[C@@H](O)[C@@H]3N=C(N)N)O[C@@H](C)[C@]2(O)C=O)O[C@@H](CO)[C@H](O)[C@H]1O (stereo not given in full)
4. CC(=O)Nc1ccc(S(=O)(=O)NC2Cc3ccccc3C2)cc1
5. COc1ccc2c(c1)CCCN2C(=O)NC(=O)c1c(F)cccc1Cl
6. COc1ccc(OCC(N)=O)cc1

0.991
1.06
1.01
0.966
0.98
1.01

I'm hoping you can list normalized growth for every compound here, please.
1. N#C/C(=C\c1cccc(O)c1)C(=O)O
2. NC(=O)C(=O)O

0.96
1.01

I'm hoping you can list normalized growth for every compound here, please.
1. COc1ccc(C(=O)C2CCNCC2)cc1
2. COc1ccc(-c2ccc(C=C(C#N)C#N)s2)cc1
3. COC(=O)COc1ccc(C(C)=O)cc1
4. O=c1cc(-c2ccccc2)oc2cc(O)c(O)c(O)c12

1.01
0.932
0.992
0.443

###

# Test Details: chemical genetic growth profiling, strain panel (AID 1159580);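 further: tested at 20 µM; growth read once vehicle control cultures reached saturation at 30 °C; 1 = growth at the plate median or of vehicle wells; lower values mean less growth of the strain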
# Protocol Conditions: S. cerevisiae deletion strains, growth OD, locus YPR135W, strain CTF4, hits give low values
The campaign covered roughly 5,500 compounds. About 2,000 (36%) were called active. Roughly 18% stayed inconclusive and do not appear here. The list shows a part of the results.
Friendly reminder: normalized growth below 1 is fulfilled, at or above is not fulfilled.

CCc1ccccc1NC(C)=O :: not fulfilled
O=C(Nc1nncs1)c1ccncc1 :: not fulfilled
Cc1ccc(S(=O)(=O)Nc2ccc(C)c([N+](=O)[O-])c2)cc1 :: fulfilled
O=S(=O)(Nc1ccc(Oc2ccc(Cl)cc2)cc1)c1ccccc1 :: fulfilled
Clc1ccc(OCCOc2ccc(Cl)cc2)cc1 :: not fulfilled

Consider Cc1cc(NS(=O)(=O)c2ccc(NS(=O)(=O)c3cc(C)c(Cl)cc3C)cc2)no1 . Does its normalized growth lie strictly below 1?
not fulfilled

Consider Cc1onc(-c2ccccc2)c1-c1nc(CSc2ccc(C(F)(F)F)cn2)no1 . Does its normalized growth lie strictly below 1?
not fulfilled

Consider O=C(O)CCOc1ccc(Cl)cc1 . Does its normalized growth lie strictly below 1?
not fulfilled

Consider Cc1cc(NS(=O)(=O)c2ccc(NS(=O)(=O)c3ccc(Cl)cc3)cc2)no1 . Does its normalized growth lie strictly below 1?
not fulfilled

Consider COc1ccc(-c2ccc(C=C(C#N)C#N)s2)cc1 . Does its normalized growth lie strictly below 1?
fulfilled

###

# Test Details: chemical genetic growth profiling, strain panel (AID 1159580);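 further: tested at 20 µM; growth read once vehicle control cultures reached saturation at 30 °C; 1 = growth at the plate median or of vehicle wells; lower values mean less growth of the strain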
# Protocol Conditions: S. cerevisiae deletion strains, growth OD, locus YNR030W, strain Alg12
Hit rate of the full screen: of about 5,500 compounds, about 2,000 (36%) were called active. Another 18% or so got no clear call; they are omitted. No stated cut-off is given here; in the data, active means normalized growth mostly below about 0.91 (no sharp cut-off); inconclusive means no clear call, values can overlap the other calls; inactive means mostly above about 0.92. Some of the results follow.
In this exercise, the only acceptable responses are yes (1) for active, no (0) for inactive

Solved entries:
CC(=O)Nc1ccc(S(=O)(=O)Nc2ncccn2)cc1 :: no (0)
CC(=O)Nc1ccc(C(F)(F)F)cc1Br :: no (0)
Cc1ccc2cc(NC(=O)c3ccco3)ccc2n1 :: yes (1)
CC(=O)Nc1ccc(S(=O)(=O)NC2Cc3ccccc3C2)cc1 :: no (0)
O=C(NNc1c(Cl)cc(Cl)cc1Cl)NC(=O)c1ccccc1F :: no (0)

Moving on to the next molecule.
For this molecule, state the assay outcome: OC1(c2ccc(Cl)cc2)CSc2nc3cc(C(F)(F)F)ccc3n21 (stereo unspecified)
no (0)

###

What normalized growth was measured for each of the following?
# Test Details: chemical genetic growth profiling, strain panel (AID 1159580);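 further: tested at 20 µM; growth read once vehicle control cultures reached saturation at 30 °C; 1 = growth at the plate median or of vehicle wells; lower values mean less growth of the strain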
# Protocol Conditions: S. cerevisiae deletion strains, growth OD, locus YML016C, strain PPZ1, hits give low values
Among all 5,500 compounds or so, about 2,000 (36%) were called active. Another 18% or so got no clear call; they are omitted. This is one part of the list. Where a SMILES comes first, the peptide text is derived from it.
One number for each entry.

The cases that follow already have their normalized growth on record.
NC(N)=NCCC[C@@H](NC(=O)[C@@H](N)Cc1ccc(O)cc1)C(=O)O :: 1
NCCCCC(N)C(=O)NC(Cc1ccc(O)cc1)C(=O)NC(CCCCN)C(=O)O (stereo not drawn) (H-Lys-Tyr-Lys-OH; configuration not given here) :: 1
CN(C)N=Nc1nc[nH]c1C(N)=O :: 1.01
NC(N)=NCCCC(NC(=O)C(N)Cc1ccc(O)cc1)C(=O)O (stereo not given) :: 0.992

Kindly review the next compound as well.
Note to self: normalized growth recorded for COc1c(Cl)ccc(Cl)c1C(=O)O was 1.01
